Method: Selectivity index, ratio of MDL50 for human HepG2 cells to MIC for Mycobacterium tuberculosis H37Rv ATCC 27294
Type: functional

Record Smiles	Ratio
COc1ccccc1-n1cc(/C=N/NC(=O)c2ccncc2)nn1	>1612
Cc1ccccc1-n1cc(/C=N/NC(=O)c2ccncc2)nn1	126
COc1ccc(-n2cc(/C=N/NC(=O)c3ccncc3)nn2)cc1	>400
O=C(N/N=C/c1cn(-c2ccc([N+](=O)[O-])cc2)nn1)c1ccncc1	>1612
O=C(N/N=C/c1cn(-c2cc(Cl)ccc2Cl)nn1)c1ccncc1	>800

Where do these numbers come from? They come from ChEMBL document CHEMBL1821640.
